Where do the numbers come from? From PubChem BioAssay (NCI).

tested on: HCT-116 colon; assay: NCI-60 one-dose screen, 48 h (100 = growth as untreated, 0 = no growth, -100 = all killed); conditions: 10 µM unless noted
Compounds without any hit were thinned out: in the full panel of roughly 83,000, 20% have a hit.
Classify on growth using band A: < 10%; band B: ≥ 10% and < 60%; band C: ≥ 60%

Prompt: Band of CCN(CC)c1ccc(/C=N/NC(=O)c2ccc(NS(C)(=O)=O)cc2)cc1 ?
Response: band B

Prompt: Band of Cn1cc(-c2nnc(N)nc2-c2c[nH]c3ccc(F)cc23)c2cc(Br)ccc21 ?
Response: band B

Prompt: Band of CN1CCC[C@]2(C)[C@H]3CC[C@@H]4[C@@H]5[C@H]6OC[C@@]5(CCC6(C)C)CC[C@@]4(C)[C@]3(C)CC[C@H]2C1(C)C ?
Response: band B

Prompt: Band of COc1cc(-c2nc(-c3ccccc3)[nH]c2-c2ccnc(NCCCNS(=O)(=O)c3cccc(F)c3)n2)ccc1F ?
Response: band C

Prompt: Band of CS(=O)(=O)c1ccc(/C(=N/N=C(N)N)c2ccc(Cl)cc2)cc1 ?
Response: band C

Prompt: Band of CCOP(=O)(OCC)OC[C@]12CCC(C)(C)CC1C1=CC[C@@H]3[C@@]4(C)CCCNC(C)(C)[C@@H]4CC[C@@]3(C)[C@]1(C)CC2 (stereo partly drawn) ?
Response: band B

Prompt: Band of CC(=O)OCCCCN1C=C/C(=C\C(=O)n2ccc3ccccc32)c2ccccc21 ?
Response: band C

Prompt: Band of CN1CCN(Cc2ccc(NC(=O)c3cncc(C#Cc4cnc5ccc(N6CCOCC6)nn45)c3)cc2C(F)(F)F)CC1 ?
Response: band A

Prompt: Band of O=C1Nc2ccc(F)cc2/C1=C\C(=O)c1ccc(NS(=O)(=O)c2ccccc2)cc1 ?
Response: band B

Prompt: Band of COC(=O)c1cccc(NC2=CC(=O)C(C)=C(C)C2=O)c1 ?
Response: band C

Prompt: Band of CN(C)c1ccc(/C=N/Nc2nc(N/N=C/c3ccc(N(C)C)cc3)nc(N3CCCCC3)n2)cc1 ?
Response: band B

Prompt: Band of COC(=O)c1ccc(NC2=C(Cl)C(=O)C(C)=C(C)C2=O)cc1 ?
Response: band B

Prompt: Band of O=C(CCCCCCNC(=O)C(O)(O)C(F)(F)F)Nc1ccc(-c2ccccc2)cc1 ?
Response: band A

Prompt: Band of O=C1[C@@H]2Cc3c([nH]c4ccccc34)[C@H](c3ccc(Cl)cc3)N2C(=O)CN1C1CCN(Cc2ccccc2)CC1 ?
Response: band B

Prompt: Band of Cc1ccc(N2CCN(C3=C(Cl)C(=O)c4ncccc4C3=O)CC2)cc1 ?
Response: band A

Prompt: Band of Cc1ccc(C(=O)CSc2nnc(-c3ccc(-c4ccc(Cl)cc4)nc3C)o2)cc1 ?
Response: band C

Prompt: Band of O=C1/C(=C/c2cc(F)cc(F)c2)Cc2cc3c(cc21)OCO3 ?
Response: band B

---

test system: MOLT-4 leukemia; test: NCI-60 one-dose screen, 48 h (100 = growth as untreated, 0 = no growth, -100 = all killed); conditions: 10 µM unless noted
This is part of a sample that, as a whole, favours compounds with a hit. Of some 83,000 tested, about 20% had one in any assay.
Classify on growth using low = under 20%, intermediate = from 20% up to 80%, high = 80% and over

Prompt: Band of CN(C)S(=O)(=O)c1ccc(-c2nc(C(Cl)Cl)nc3cc(-c4ccccc4)nn23)cc1 ?
Response: intermediate

Prompt: Band of COC(=O)c1ccc(NC2=C(Cl)C(=O)C(C)=C(C)C2=O)cc1 ?
Response: low

Prompt: Band of Cc1cc(NS(=O)(=O)c2ccc(NC(=O)CSc3nc4ccccc4c(=O)n3-c3ccccc3)cc2)no1 ?
Response: high

Prompt: Band of CCOC(=O)c1cnc2c(-c3ccc(Cl)c(Cl)c3)cnn2c1 ?
Response: intermediate

Prompt: Band of NC1C2CCC1CN(c1cnc(C(=O)Nc3cc(F)cc4cccnc34)cn1)C2 (stereo unspecified) ?
Response: low

Prompt: Band of N#C/C(=C\c1cccc2c1OCO2)C(=O)Nc1sc2c(c1C#N)CCCC2 ?
Response: high

Prompt: Band of CCCCN1C(=O)/C(=c2\sc3n(c2=O)C2C(NN=3)N(CC)C(=O)N2CC)c2cc(C)ccc21 (stereo unspecified) ?
Response: high

Prompt: Band of CCc1cc(OC(=O)N2CCN(CCC(C)(COC(C)(C)C)COC(C)(C)C)CC2)ccc1Nc1cc(-c2ccc(-n3cccn3)cc2)[nH]n1 ?
Response: intermediate

Prompt: Band of Brc1ccc(-c2cc(-c3ccc4c(c3)OC=CO4)n[nH]2)s1 ?
Response: intermediate

Prompt: Band of CC(Nc1c(C#N)cnc2ccc(-c3cncc(O)c3)cc12)c1ccccc1 (stereo unspecified) ?
Response: low

Prompt: Band of CC(=O)Nc1cc(N2CCOCC2)c2nc(NC(=O)c3[nH]c(C)c(Cl)c3Cl)sc2c1 ?
Response: intermediate

Prompt: Band of O=C(Nc1ccc(N2CCOCC2)cc1)Nc1ccc2c(ccn2C(=O)c2cccc(F)c2)c1 ?
Response: high

Prompt: Band of Nc1ncc(-c2ccc3ncnc(NCc4ccccc4)c3c2)cn1 ?
Response: low

Prompt: Band of Cc1ccc(C(=O)CSc2nnc(-c3ccc(-c4ccc(Cl)cc4)nc3C)o2)cc1 ?
Response: high

Prompt: Band of O=c1c2cc(-c3ccc(F)cc3F)ccc2n(O)c(=O)n1-c1cccc(C(F)(F)F)c1 ?
Response: low

Prompt: Band of Cc1ccc(-c2csc(N/N=C/c3cccs3)n2)cc1 ?
Response: high

Prompt: Band of C=C(C)[C@@H]1CC[C@]2(C(=O)O)CC[C@]3(C)[C@H](CC[C@@H]4[C@@]5(C)C/C(=C/c6ccccn6)C(=O)C(C)(C)[C@@H]5CC[C@]43C)[C@@H]12 ?
Response: intermediate

Prompt: Band of Brc1cccc(-c2cc(-c3cnc4c(c3)OCCO4)n[nH]2)c1 ?
Response: intermediate

Prompt: Band of COc1ccc2sc(NC(=O)CCCCCCNC(=O)C(O)(O)C(F)(F)F)nc2c1 ?
Response: low

Prompt: Band of COCCOc1ccc2ncc(C#Cc3cncc(C(=O)Nc4ccc(CN5CCN(C)CC5)c(C(F)(F)F)c4)c3)n2n1 ?
Response: low

Prompt: Band of CN1c2ccccc2Sc2cc(/C=N/Nc3ccnc4cc(Cl)ccc34)ccc21 ?
Response: high

Prompt: Band of O=C(Nc1ccc(Cl)c(C(F)(F)F)c1)Nc1ccc2oc(=O)ccc2c1 ?
Response: intermediate

Prompt: Band of CN(C)CCNc1ccc2ncc(C#Cc3cncc(C(=O)Nc4ccc(CN5CCN(C)CC5)c(C(F)(F)F)c4)c3)n2n1 ?
Response: low

Prompt: Band of CCc1cc2c(cc1Cl)nc1c(=O)[nH]c(=O)nc-1n2CCOCC(C)C ?
Response: intermediate

Prompt: Band of COc1cccc2c1[C@H](OC)[C@]13O[C@@]1(C2=O)[C@H](O)[C@H](C)[C@@](O)(C(=O)[C@@H]1O[C@H]1C)[C@@H]3O ?
Response: low

Prompt: Band of COc1ccc(C2c3[nH]c4ccc(Cl)cc4c3CCN2c2oc(CO)nc2C#N)cc1 (stereo unspecified) ?
Response: intermediate

Prompt: Band of C#CCN(C)CCCOc1ccc(NCc2ccc(/C=C/C(=O)NO)cc2)cc1Cl ?
Response: low

Prompt: Band of N#Cc1c(-c2cccs2)cc(-c2cnccn2)nc1SCC(=O)N/N=C/c1ccc(Cl)cc1 ?
Response: high

Prompt: Band of Clc1cccc(/C=N/Nc2nc(N/N=C/c3cccc(Cl)c3)nc(N3CCCCC3)n2)c1 ?
Response: intermediate

Prompt: Band of COc1ccc(-c2c(C(N)=O)c(N)n(Cc3nc4ccccc4[nH]3)c(=O)c2C#N)c(OC)c1 ?
Response: high

Prompt: Band of CC(=O)N(O)CCCCCNC(=O)CCC(=O)N(O)CCCCCNC(=O)CCC(=O)N(O)CCCCCN(CCCCCCCCCC[P+](c1ccccc1)(c1ccccc1)c1ccccc1)CCCCCCCCCC[P+](c1ccccc1)(c1ccccc1)c1ccccc1 ?
Response: low

Prompt: Band of CCOC(=O)c1ccccc1NC1=C(Cl)C(=O)c2nc(C)ccc2C1=O ?
Response: high

Prompt: Band of CCN1CCN(c2ccc(NC(=O)Nc3ccc4c(ccn4-c4ccnc(C(=O)NC)c4)c3)cc2C(F)(F)F)CC1 ?
Response: low

---

Tested on: UACC-62 melanoma
Test: NCI-60 one-dose screen, 48 h
Conditions: 10 µM unless noted
Experimental: Growth inhibition of the UACC-62 human tumor cell line is measured as a screen for anti-cancer activity. Cells are grown in 96 well plates and exposed to the test compound for 48 hours. Compounds are tested at a single concentration, which is 10^-5 M for most compounds. The reported endpoint is percent growth (GI% or GIPRCNT), where numbers from 0 - 100% represent growth inhibition, and numbers from -100% - 0 represent cell death. For example, a value of 40 represents 60% growth inhibition. […]
About 83,000 compounds went through this panel and 20% of them were active in at least one assay; those are over-represented in the sample as a whole. Calls of active or inactive are those of the source. How the source made its calls: active means growth percent below 10; inactive means the rest.
Select the matching outcome among active, inactive

Prompt: Recorded call for Clc1ccc(CSc2nnc(-c3ccc(Cl)cc3)n2-c2ccccc2)cc1 ?
Response: inactive

Prompt: Recorded call for O=C(CSc1nc2ccccc2c(=O)n1-c1ccc(Cl)c(Cl)c1)Nc1ccc(S(=O)(=O)Nc2ccc(Cl)nn2)cc1 ?
Response: inactive

Prompt: Recorded call for CNC(=O)c1cc(-c2ccc(NC(=S)Nc3cccc(C(F)(F)F)c3)cc2)nc2cccnc12 ?
Response: inactive

Prompt: Recorded call for Cc1ncn(-c2ccc(/C=N/Nc3ccnc4cc(Cl)ccc34)cc2)c1C ?
Response: active

Prompt: Recorded call for CCC(=C(c1ccc(OCCN(C)C)cc1)c1ccc(OCCN(C)C)cc1)c1ccc(Cl)cc1 ?
Response: active

Prompt: Recorded call for CC(C)C(/C=C/c1[nH]ncc1-c1cc(Cl)ccc1O)N1CCOCC1 (stereo not given) ?
Response: inactive

Prompt: Recorded call for O=C(/C=C/Nc1ccc(S(=O)(=O)Nc2ncccn2)cc1)c1ccc(N=Cc2c(O)[nH]c3ccccc23)cc1 ?
Response: inactive

Prompt: Recorded call for COc1ccc(Cn2cc(C#N)c(N)c2C(C)=O)cc1 ?
Response: inactive

Prompt: Recorded call for CC(C)NC(=O)c1cc(-c2ccc(NC(=O)Nc3ccc(F)cc3)cc2)nc2cccnc12 ?
Response: inactive

Prompt: Recorded call for Cc1cc(Br)ccc1-n1cc(C#N)c(N)c1C(=O)c1ccc(Br)cc1 ?
Response: inactive

Prompt: Recorded call for CCCCCc1ccc(S(=O)(=O)Nc2cc(-c3csc(N)n3)ccc2OC)cc1 ?
Response: inactive

Prompt: Recorded call for O=c1nc(Nc2ccc([N+](=O)[O-])cc2O)sc2ccccc12 ?
Response: inactive

Prompt: Recorded call for CC(=O)/C(N=Nc1ccc2oc(=O)ccc2c1)=C(\C)O ?
Response: inactive

Prompt: Recorded call for Cc1ccc2c(n1)C(=O)C(Cl)=C(Nc1ccccc1C(=O)OC(C)(C)C)C2=O ?
Response: inactive

Prompt: Recorded call for CCCCc1nc2c(N)nc3ccccc3c2n1Cc1ccc(OC)cc1 ?
Response: inactive

Prompt: Recorded call for O=C(Nc1ccc(N=Cc2c(O)[nH]c3ccccc23)cc1)Nc1ccc(S(=O)(=O)Nc2ncccn2)cc1 ?
Response: inactive

Prompt: Recorded call for CCN(CC)c1ccc(/C=N/NC(=O)c2ccc(NS(C)(=O)=O)cc2)c(O)c1 ?
Response: active

Prompt: Recorded call for CCc1cc2c(cc1Cl)nc1c(=O)[nH]c(=O)nc-1n2CCOCC(C)C ?
Response: inactive

Prompt: Recorded call for COc1cc(/C=N\NC(=O)c2ccc3nc(-c4ccc(Br)cc4)[nH]c3c2)cc(OC)c1OC ?
Response: inactive

Prompt: Recorded call for O=C1[C@H]2Cc3c([nH]c4ccccc34)[C@H](c3ccc(Cl)cc3)N2C(=O)CN1C1CCN(CC2CCCCC2)CC1 ?
Response: inactive
